Below, each of the compounds is paired with its reported glass transition temperature value.
resultType: glass transition temperature (°C)

| compound | resultType | testValue |
| --- | --- | --- |
| */C=C/c1ccc(/C=C/[Si](C)(C)c2ccc([Si](*)(C)C)cc2)cc1 (repeat unit) | glass transition temperature | 63.00 |
| *c1ccc(Oc2ccc(Oc3ccc(-n4c(=O)c5cc6c(=O)n(*)c(=O)c6cc5c4=O)cc3)cc2)c(C(F)(F)F)c1 (repeat unit) | glass transition temperature | 272.20 |
| *OC(COC(=O)C12CC3CC(CC(C(*)=O)(C3)C1)C2)COc1ccc(/N=N/c2ccc(C#N)cc2)cc1 (repeat unit) | glass transition temperature | 105.00 |
| *CCN(CCOC(=O)Nc1ccc(Cc2ccc(NC(=O)O*)cc2)cc1)c1ccc(/N=N/c2ccc([N+](=O)[O-])cc2)cc1 (repeat unit) | glass transition temperature | 136.40 |
| *=Nc1cccc(/N=C(/C=C/C(=*)c2ccccc2)c2ccccc2)c1 (repeat unit) | glass transition temperature | 178.00 |
| *CCC1CC(*)C2C3CC(C12)C(C)(C(=O)OC)C3 (repeat unit) | glass transition temperature | 146.00 |
| *C(=O)Oc1c(C)cc(C(C)(C)c2cc(C)c(OC(=O)c3ccc4c(c3)C(=O)N(c3ccc(-c5ccc(N6C(=O)c7ccc(*)cc7C6=O)cc5C)c(C)c3)C4=O)c(C)c2)cc1C (repeat unit) | glass transition temperature | 182.00 |
| *c1ccc(NC(=O)CCCCCCCCCCC(=O)Nc2ccc(S(*)(=O)=O)cc2)cc1 (repeat unit) | glass transition temperature | 160.00 |
| *CC(*)(C)C(=O)OCCOc1ccc(/N=N/c2ccc(C#N)cc2)cc1 (repeat unit) | glass transition temperature | 109.00 |
| *CCCCCCNC(=O)c1cccc(C(=O)N*)c1 (repeat unit) [Poly(hexamethylene isophthalamide) ] | glass transition temperature | 129 |
| *c1cc(N2C(=O)c3ccc(Oc4cc5ccccc5cc4Oc4ccc5c(c4)C(=O)N(*)C5=O)cc3C2=O)cc(C(F)(F)F)c1 (repeat unit) | glass transition temperature | 250.00 |
| *c1cccc(P(=O)(c2ccccc2)c2cccc(N3C(=O)c4ccc(NC(=O)OCCOc5c(Br)cc(C(C)(C)c6cc(Br)c(OCCOC(=O)Nc7ccc8c(c7)C(=O)N(*)C8=O)c(Br)c6)cc5Br)cc4C3=O)c2)c1 (repeat unit) | glass transition temperature | 201.00 |
| *CC(*)(C)C(=O)Oc1ccc(C(=O)c2ccccc2)c(O)c1 (repeat unit) | glass transition temperature | 270.00 |
| *C(=O)CCC1(CCC(=O)N2CCN(*)CC2)c2ccccc2-c2ccccc21 (repeat unit) | glass transition temperature | 145.00 |

###

Below, each of the compounds is paired with its reported glass transition temperature value.

| compound | glass transition temperature [°C] |
| --- | --- |
| *CC(*)C(=O)OCCCCOc1ccc(-c2ccc(C#N)cc2)cc1 (repeat unit) | 30.00 |
| *CC(*)C(=O)OCc1ccccc1 (repeat unit) | 9.2 |
| *CCOC(=O)NNC(=O)CCCCCCCCC(=O)NNC(=O)O* (repeat unit) | 63.00 |
| *C(=O)OC1CC(*)N(C(=O)OCc2ccccc2)C1 (repeat unit) | 78.00 |
| *CC(C)CO* (repeat unit) | -55.00 |
| *c1cccc(N2C(=O)c3ccc(P(=O)(c4ccccc4)c4ccc5c(c4)C(=O)N(*)C5=O)cc3C2=O)c1 (repeat unit) | 323.00 |
| *O[Si](Oc1ccc(-c2ccc(*)cc2)cc1)(c1ccccc1)c1ccccc1 (repeat unit) | 132.2 |
| *C1C2CC(C(=O)OCCc3ccc(N(c4ccccc4)c4cccc(C)c4)cc3)C(C2)C1* (repeat unit) | 305.00 |
| *Oc1ccc(C2(c3ccc(OC(=O)c4ccc(C(*)=O)cc4)cc3)CCC3CCCCC3C2)cc1 (repeat unit) | 275.00 |
| *OC(C)COC(=O)c1ccccc1C(*)=O (repeat unit) | 95.00 |

###

Binary call on glass transition temperature with cut-off 90 °C: strictly below means criterion met, and equality or higher means criterion not met.

| compound | answerLabel |
| --- | --- |
| *Oc1ccc(/C=C/C(=O)c2ccc(Oc3ccc(C(C)(C)c4ccc(*)cc4)cc3)cc2)cc1 (repeat unit) | criterion not met |
| *c1ccc2c3ccc(-c4ccc(-c5ccc(-c6ccc(*)s6)c6nsnc56)s4)cc3n(C(CCCCCCCC)CCCCCCCC)c2c1 (repeat unit) | criterion not met |
| *c1ccc(Oc2cc(C(C)(C)C)c(Oc3ccc(N4C(=O)c5ccc(Oc6ccc7c(c6)C(=O)N(*)C7=O)cc5C4=O)cc3)cc2C(C)(C)C)cc1 (repeat unit) | criterion not met |
| *CCCCP(C)(=O)CCCNC(=O)CCCCC(=O)N* (repeat unit) | criterion met |
| *CCCCCCOC(=O)NCCCCCCNC(=O)O* (repeat unit) | criterion not met |
| *CC(*)C(=O)Oc1ccc(OC)cc1 (repeat unit) | criterion met |

###

Below, each of the compounds is paired with its reported glass transition temperature value.

| compound | glass transition temperature, °C |
| --- | --- |
| *CC1CCC(COC(=O)C2CCC(C(=O)O*)CC2)CC1 (repeat unit) | 77.00 |
| *CC(*)c1cc(C)c(C)cc1C (repeat unit) | 104.00 |
| *Oc1ccc(/N=N/c2ccc(Cc3ccc(/N=N/c4ccc(OC(=O)c5ccc(/N=N/c6ccc(C(*)=O)cc6)cc5)cc4)cc3[N+](=O)[O-])c([N+](=O)[O-])c2)cc1 (repeat unit) | 160.00 |
| *Oc1c(Cl)cc(C2(c3cc(Cl)c(OC(*)=O)c(Cl)c3)CC3CCC2C3)cc1Cl (repeat unit) | 290.00 |
| *CCC(C)CC(=O)O* (repeat unit) | -71.50 |
| *OS(=O)(=O)c1ccc(*)cc1 (repeat unit) | 119.00 |
| *c1ccc(Oc2ccc(C(=O)c3ccc(Oc4ccc(-c5nc(-c6ccc(-c7nc(*)c(-c8ccccc8)[nH]7)cc6)[nH]c5-c5ccccc5)cc4)cc3)cc2)cc1 (repeat unit) | 276.00 |
| *CC(*)(C)C(=O)OCC#N (repeat unit) | 91.00 |

###

resultType: glass transition temperature (°C)

| molecule | testValue |
| --- | --- |
| *CC(*)C(=O)OCC(COC(=O)c1ccccc1)(COC(=O)c1ccccc1)COC(=O)c1ccccc1 (repeat unit) | 48.00 |
| *O[Si](Oc1ccc(C2(c3ccc(*)cc3)c3ccccc3-c3ccccc32)cc1)(c1ccccc1)c1ccccc1 (repeat unit) | 166.00 |
| *CCCCNC(=O)Cc1ccc(C(=O)N*)cc1 (repeat unit) | 84.00 |
| *Nc1ccc(Cc2ccc(NC(=O)NCCCCCCNC(*)=O)cc2)cc1 (repeat unit) | 78.00 |

###

Below, each of the compounds is paired with its reported glass transition temperature value.
resultType: glass transition temperature (°C)

| compound | testValue |
| --- | --- |
| *C(=O)Nc1ccc(Oc2cccc(NC(=O)c3ccc4c(c3)C(=O)N(c3ccc(Oc5ccc(N6C(=O)c7ccc(*)cc7C6=O)cc5)cc3)C4=O)c2)cc1 (repeat unit) | 236.00 |
| *C(=O)c1ccc2c(c1)C(=O)N(c1cc(N3C(=O)c4ccc(*)cc4C3=O)c(O)cc1O)C2=O (repeat unit) | 324.00 |
| *c1ccc2c(c1)C(=O)N(c1ccc(Oc3cccc(-c4cc(-c5ccccc5)cc(-c5cccc(Oc6ccc(N7C(=O)c8ccc(C(*)(C(F)(F)F)C(F)(F)F)cc8C7=O)cc6)c5)n4)c3)cc1)C2=O (repeat unit) | 180.00 |
| *C(=O)c1ccc2c(c1)C(=O)N(c1ccc(Oc3ccc(C(=O)c4ccc5cc(C(=O)c6ccc(Oc7ccc(N8C(=O)c9ccc(*)cc9C8=O)cc7)cc6)ccc5c4)cc3)cc1)C2=O (repeat unit) | 246.00 |
| *Oc1ccc(C(C)(C)c2ccc(Oc3ccc(C(=O)c4ccccc4-c4ccccc4C(=O)c4ccc(*)cc4)cc3)cc2)cc1 (repeat unit) | 172.00 |
| *c1c(C)cc(C(c2cccnc2)c2cc(C)c(N3C(=O)CC(Nc4cccc(NC5CC(=O)N(*)C5=O)c4)C3=O)c(C)c2)cc1C (repeat unit) | 224.00 |
| *CCOCCOC(=O)c1ccccc1-c1ccccc1C(=O)O* (repeat unit) | 17.00 |
| *CC(*)(C)C(=O)OCCCCCCCCCCCC (repeat unit) | -47.90 |
| *Oc1cc(Br)c(C(C)(C)c2c(Br)cc(OC(*)=O)cc2Br)c(Br)c1 (repeat unit) | 267.00 |
| *SC(C)C(*)=O (repeat unit) | 12.00 |
| *O[Si](*)(C)CCCCCCCCCCC(=O)Oc1ccc(C(=O)Oc2ccc(OC(=O)c3ccc(OCC(C)CC)cc3)cc2)cc1 (repeat unit) | 28.50 |
| *Cc1ccc2oc(=O)c(C(=O)Nc3ccc(Oc4ccc(Oc5ccc(NC(=O)c6cc7cc(*)ccc7oc6=O)cc5)cc4)cc3)cc2c1 (repeat unit) | 290.00 |
| *Oc1ccc(NC(=O)c2cc(C(c3ccc(C(=O)O)c(C(=O)Nc4ccc(Oc5ccc(C(c6ccc(*)cc6)(C(F)(F)F)C(F)(F)F)cc5)cc4)c3)(C(F)(F)F)C(F)(F)F)ccc2C(=O)O)cc1 (repeat unit) | 260.00 |

Attribution: the PolyMetriX glass transition set
